# Tested on: UACC-62 melanoma
# experiment_summary: NCI-60 one-dose screen, 48 h
# measurement_parameters: 10 µM unless noted
Compounds without any hit were thinned out: in the full panel of roughly 83,000, 20% have a hit. Active and inactive are the calls of the source. Rule for the calls: active = growth percent below 10; inactive = the rest.
Log the outcome using a class from active, inactive

INPUT: Assay outcome for OCC(O)C(O)C(O)C(O)/C=N/O (centres undefined) : what was it?
OUTPUT: inactive

INPUT: Another compound to look at: COc1ccc(C)cc1OC
OUTPUT: inactive

INPUT: Another: CC1(O)OC(COc2ccc(Cl)cc2)COC1O (centres undefined)
OUTPUT: inactive

INPUT: Also O=C1N(C[P+](c2ccccc2)(c2ccccc2)c2ccccc2)CCCN1C[P+](c1ccccc1)(c1ccccc1)c1ccccc1 ?
OUTPUT: inactive

INPUT: Try this compound too: CCCCC/C=N/Nc1nc(C)cc(=O)[nH]1
OUTPUT: inactive

---
INPUT: Dear all, I need the recorded test outcome for O=C1Cc2ccccc2C(=O)O1 , thank you.
OUTPUT: inactive

INPUT: Entry to check: COc1cccc(/C=N/NC(=S)NC2CC3CCC2C3)c1O (centres undefined)
OUTPUT: inactive

INPUT: Try this compound next: C/C(=N\NC(=O)c1ccccc1N)c1ccccc1O
OUTPUT: inactive

INPUT: Then CC1CCC2C(C)(C)C3CC12CC1OC13C (centres undefined) ?
OUTPUT: inactive

INPUT: Also COc1cc2cc(OC(C)=O)c3cc4c(cc3c2c(OC)c1OC)OCO4 , if possible.
OUTPUT: inactive

INPUT: Now consider O=[N+]([O-])c1ccc(CO)cc1 and answer again.
OUTPUT: inactive

INPUT: Lookup CC1SC(N)=NC1=O (centres undefined)
OUTPUT: inactive

INPUT: // repeat for Nc1ncnc2[nH]ncc12 and report
OUTPUT: active

INPUT: // next record O=C1C=C(Nc2ccc([N+](=O)[O-])cc2)c2ccccc2C1=O
OUTPUT: inactive

====

Readings of growth for the listed compounds
# Test system: RXF 393 renal
# experiment_summary: NCI-60 one-dose screen, 48 h (100 = growth as untreated, 0 = no growth, -100 = all killed)
# measurement_parameters: 10 µM
About 83,000 compounds went through this panel and 20% of them were active in at least one assay; those are over-represented in the sample as a whole.
Unit % implied. Number only.

# count of solved cases: 5
INPUT: I would be grateful if you could share the reported growth for COc1cc(C2c3cc4c(cc3C3OC(=O)C2C3CO)OCO4)cc(OC)c1OC (configuration not stated) .
OUTPUT: 57.9

INPUT: Note, next up: CCOC(=O)Nc1cc2c(c(N)n1)N=C(c1ccccc1)CO2
OUTPUT: 27.3

INPUT: Similarly, O=C(NCc1ccco1)Nc1c(Cl)cc(Cl)cc1Cl ?
OUTPUT: 107

INPUT: What about Nc1nc(N)c(N=Nc2ccc(C(=O)O)cc2)c(N)n1 ?
OUTPUT: 113

INPUT: Quick one: Cc1ccc(S(=O)(=O)O)c(C)c1
OUTPUT: 117

Further cases:
INPUT: Please report the recorded growth for O=c1cc2oc3cc(O)c(O)cc3c(-c3ccccc3O)c-2cc1O .
OUTPUT: 60.1

INPUT: Here is the next compound: COc1ccc2c(NCCCCCCCCNc3c4ccccc4nc4cc(OC)ccc34)c3ccccc3nc2c1
OUTPUT: -74.3

INPUT: Try S=C1NCc2cncnc2N1 next.
OUTPUT: 105

INPUT: Now give it for COc1ccc(-c2cc3c(nn2)-c2ccccc2C3=O)cc1 too.
OUTPUT: 71.8

INPUT: Then this compound: CC(C)OC(C(=O)O)c1ccccc1 (configuration not stated)
OUTPUT: 117

INPUT: Lookup O=C1C=C(Nc2ccc([N+](=O)[O-])cc2)c2ccccc2C1=O
OUTPUT: 69.2

INPUT: Let us now turn to CC(=O)c1cc2c(cc1F)C(C)(C)CCC2(C)C
OUTPUT: 113

====

# Test system: IGROV1 ovarian
# experiment_summary: NCI-60 one-dose screen, 48 h (100 = growth as untreated, 0 = no growth, -100 = all killed)
# measurement_parameters: 10 µM
The panel holds about 83,000 compounds, 20% with a hit somewhere; the sample as a whole holds those more often.
Measured growth accompanies every entry in the list below.
Express the result in % but write the number alone.

The examples below pair each entry with its known result.
INPUT: Requested field: growth. Item: COc1ccc(-c2cc(-c3cc(-c4ccc(OC)cc4)nc(N)n3)nc(N)n2)cc1
OUTPUT: 109

INPUT: Moving on to the next compound: CC(=O)/C(Cc1ccccc1)=N/O
OUTPUT: 112

INPUT: Now the same for COc1ccccc1N=Nc1c(O)ccc2cc(S(=O)(=O)O)ccc12
OUTPUT: 110

INPUT: What would you report for C/C(=C\c1cc(Cl)ccc1OCC(=O)O)[N+](=O)[O-] ?
OUTPUT: 112

INPUT: And what about the compound c1c(-c2cc(C3CC3)[nH]n2)n[nH]c1C1CC1 ?
OUTPUT: 111

Further cases:
INPUT: Which growth is listed for CN(C)C(C)(C)CC(C)(C)C ?
OUTPUT: 106

INPUT: How about Sc1ccc(Nc2c3ccccc3nc3ccccc23)cc1 ?
OUTPUT: 89.3

INPUT: Would you mind doing CCOC(=O)CCCS(C)(=O)=O as well?
OUTPUT: 120

INPUT: // query: CC1CCC2C(C)(C)C3CC12CC1OC13C (configuration not stated)
OUTPUT: 114

INPUT: // next record O=S(=O)(O)c1ccc(Cl)c(Cl)c1
OUTPUT: 122

INPUT: And then O=c1[nH]n(-c2ccccc2)c(=O)cc1Cl , what is it?
OUTPUT: 102

INPUT: Likewise for O=c1cc(-c2ccccc2)nc2cc(-c3ccco3)[nH]n12 ?
OUTPUT: 70.5

INPUT: // next record Cc1nc2ccccc2c2nnc(SCC(=O)N(Cc3ccccc3)c3ccccc3)n12
OUTPUT: 71.6

INPUT: And the next one, CCOC(=O)c1cc(/C=C/c2cccc(Cl)c2)on1 ?
OUTPUT: 93.9

INPUT: Same question, CNc1nc(NC)c2cn[nH]c2n1 this time
OUTPUT: 109

INPUT: Also need OCCN1CCOCC1 , thanks.
OUTPUT: 117

INPUT: Record: COc1ccc(C(C)C=O)cc1 (configuration not stated)
OUTPUT: 116

INPUT: Queued: Cc1cc(N)c(S(=O)(=O)O)c(N)c1
OUTPUT: 130

INPUT: Next record, please: Cc1cc(Cc2cc(C)c(N)cc2N)c(N)cc1N
OUTPUT: 87.5

INPUT: Then what about the compound CCOC(=O)C(=O)C=P(c1ccccc1)(c1ccccc1)c1ccccc1 ?
OUTPUT: 102

====

A collection of compounds and their measured growth
# System: NCI/ADR-RES ovarian
# experiment_summary: NCI-60 one-dose screen, 48 h (100 = growth as untreated, 0 = no growth, -100 = all killed)
# measurement_parameters: 10 µM
The panel holds about 83,000 compounds, 20% with a hit somewhere; the sample as a whole holds those more often.
Respond numerically; units are % and should not be typed.

# example entries with known answers
INPUT: Which value of growth has been reported for Nc1nc(N)c(N=Nc2ccc(C(=O)O)cc2)c(N)n1 in the records?
OUTPUT: 101

INPUT: Next compound up: CC(=O)OCCC(C)CCC=C(C)C (stereo unspecified)
OUTPUT: 107

INPUT: Query O=C(O)c1ccc(S(=O)(=O)O)cc1 next
OUTPUT: 100

INPUT: Would you kindly repeat that for COc1ccc(C(O)c2ccccc2)cc1 (stereo unspecified) ?
OUTPUT: 105

INPUT: Please answer likewise for CCC(=O)Oc1ccc(OC)cc1
OUTPUT: 106

INPUT: Another compound to look at: COC(=O)Nc1cccc(Cl)c1OC
OUTPUT: 110

INPUT: Please answer likewise for CSC(=N\N=C\c1ccc(N(C)C)cc1)/N=C/N(C)C
OUTPUT: 119

INPUT: Moving on to CC1CC(O)CC(C)(C)C1 (stereo unspecified)
OUTPUT: 110

INPUT: // query: O=C(O)c1ccccc1NCc1ccco1
OUTPUT: 94.5

INPUT: Now the compound COc1ncnc2c1cnn2C
OUTPUT: 104

***
INPUT: Which growth reading was recorded for the compound C=CC(=O)OCCCCCCCC ?
OUTPUT: 105

INPUT: What about this compound? O=[N+]([O-])c1ccccc1S(=O)c1ccccc1[N+](=O)[O-]
OUTPUT: 91.5

INPUT: One more compound: O=C(O)CCC(=O)OC(C1CO1)C(OC(=O)CCC(=O)O)C1CO1 (stereo unspecified)
OUTPUT: 109
